B1: ZNF511 (parent)
chain: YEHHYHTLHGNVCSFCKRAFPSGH

# Variants of: B1
# run-description: protein stability index of a GFP-peptide fusion (GPS, HEK-293T) (PSI 1-6); higher = more stable;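 note: lentivirally expressed fusions sorted by FACS into six bins by GFP to DsRed ratio, PSI derived from sequencing read proportions per bin multiplied by bin number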
# run-conditions: c terminus: a fixed tail appended
measured-endpoint: protein stability index
Number, no unit, nothing else.

Prompt: Return protein stability index (reported value) for this variant: Y1N
Completion: 3.38

Prompt: Return protein stability index (reported value) for this variant: Y1D
Completion: 3.67

Prompt: Return protein stability index (reported value) for this variant: F15P
Completion: 2.01

Prompt: Return protein stability index (reported value) for this variant: H3Y
Completion: 2.23

Prompt: Return protein stability index (reported value) for this variant: R18F
Completion: 1.94

---
Prompt: Return protein stability index (reported value) for this variant: H4Q
Completion: 2.1

Prompt: Return protein stability index (reported value) for this variant: N11A
Completion: 2.64

Prompt: Return protein stability index (reported value) for this variant: S22H
Completion: 2.99

Prompt: Return protein stability index (reported value) for this variant: K17V
Completion: 1.87

Prompt: Return protein stability index (reported value) for this variant: Y5W
Completion: 2.32

Prompt: Return protein stability index (reported value) for this variant: S22Y
Completion: 1.7

Prompt: Return protein stability index (reported value) for this variant: R18Q
Completion: 1.53

Prompt: Return protein stability index (reported value) for this variant: R18A
Completion: 2.06

Prompt: Return protein stability index (reported value) for this variant: G10W
Completion: 2.29

Prompt: Return protein stability index (reported value) for this variant: S22A
Completion: 2.08

Prompt: Return protein stability index (reported value) for this variant: P21L
Completion: 2.36

Prompt: Return protein stability index (reported value) for this variant: H4E
Completion: 2.7

Prompt: Return protein stability index (reported value) for this variant: P21M
Completion: 2.57

Prompt: Return protein stability index (reported value) for this variant: H9C
Completion: 2.18

Prompt: Return protein stability index (reported value) for this variant: R18I
Completion: 1.6

Prompt: Return protein stability index (reported value) for this variant: Y1F
Completion: 2.72

Prompt: Return protein stability index (reported value) for this variant: H3A
Completion: 1.97

Prompt: Return protein stability index (reported value) for this variant: L8W
Completion: 2.3

Prompt: Return protein stability index (reported value) for this variant: C13H
Completion: 1.9

Prompt: Return protein stability index (reported value) for this variant: A19L
Completion: 2.36
